- TEST_SYSTEM: Bromodomain-containing protein 4 (Homo sapiens)
- ASSAY_METHOD_TEXT: Displacement of fluorescein-labeled MS574 from recombinant human BRD4 BrD2 after 1 hr by fluorescence anisotropy assay
pKi: −log10 of the molar value.
MEASURED_METRIC: pKi

> print(dat)
                                 cpd.smiles  reported.result
1  COc1cc(/N=N/c2cc(C)c(O)c(C)c2)ccc1S(=O)(=O)Nc1ccccn1             5.11
2  Cc1cc(/N=N/c2ccc(S(=O)(=O)Nc3ccc(C(F)(F)F)cc3)cc2)cc(C)c1O             5.15
3  Cc1cc(/N=N/c2ccc(S(=O)(=O)Nc3cccc(C(F)(F)F)c3)cc2)cc(C)c1O             5.11

A = O=S(=O)(Nc1ccccn1)c1ccc(/N=N/c2cc(Cl)c(O)c(Cl)c2)cc1
B = Cc1cc(/N=N/c2ccc(S(=O)(=O)Nc3ccc(Br)cn3)cc2)cc(C)c1O
Query: // returns A or B , whichever has the lower pKi Select an item and report its label.
Result: B
(B: 4.41, A: 5.31)

* * *

- TEST_SYSTEM: Bromodomain-containing protein 7 (Homo sapiens, UniProt Q9NPI1)
- Sequence (Q9NPI1 whole entry): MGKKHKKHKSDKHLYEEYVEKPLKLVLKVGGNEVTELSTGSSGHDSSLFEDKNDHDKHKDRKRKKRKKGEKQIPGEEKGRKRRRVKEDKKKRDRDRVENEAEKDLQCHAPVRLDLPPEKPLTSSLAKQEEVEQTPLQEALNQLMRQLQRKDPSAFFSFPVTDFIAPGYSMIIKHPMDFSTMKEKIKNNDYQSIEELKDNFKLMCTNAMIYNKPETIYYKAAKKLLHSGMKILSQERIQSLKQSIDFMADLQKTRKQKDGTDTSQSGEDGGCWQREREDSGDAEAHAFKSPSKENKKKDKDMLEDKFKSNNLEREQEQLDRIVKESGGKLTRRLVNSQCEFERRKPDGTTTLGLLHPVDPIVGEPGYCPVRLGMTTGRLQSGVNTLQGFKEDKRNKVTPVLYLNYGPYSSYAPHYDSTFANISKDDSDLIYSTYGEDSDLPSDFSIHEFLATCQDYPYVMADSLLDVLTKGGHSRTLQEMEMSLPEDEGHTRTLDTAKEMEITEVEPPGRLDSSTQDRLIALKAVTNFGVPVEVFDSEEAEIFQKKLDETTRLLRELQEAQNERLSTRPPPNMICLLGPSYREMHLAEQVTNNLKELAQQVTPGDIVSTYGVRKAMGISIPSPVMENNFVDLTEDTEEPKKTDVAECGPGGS
- ASSAY_METHOD_TEXT: Displacement of fluorescein-labeled MS226 from recombinant human BRD7 after 1 hr by fluorescence anisotropy assay
MEASURED_METRIC: Ki (nM)

> print(dat)
                                 cpd.smiles  value.units  reported.result
1  Cc1cc(/N=N/c2ccc(S(=O)(=O)Nc3ccccn3)cc2)cc(C)c1O           nM             3540
2  Cc1cc(/N=N/c2ccc(S(=O)(=O)Nc3ccccn3)cc2)c(N)cc1O           nM             2720

* * *

- TEST_SYSTEM: Nucleosome-remodeling factor subunit BPTF (Homo sapiens, UniProt Q12830)
- ASSAY_METHOD_TEXT: Displacement of fluorescein-labeled MS239 from recombinant human BPTF after 1 hr by fluorescence anisotropy assay
MEASURED_METRIC: Ki (nM)

I = Cc1cc(/N=N/c2ccc(S(=O)(=O)Nc3ccccn3)cc2)c(N)c(Cl)c1O
II = Cc1cc(/N=N/c2ccc(S(=O)(=O)Nc3ccccn3)cc2)c(N)cc1O
Query: For the pair I and II , which member has the lower Ki number? # reply format: chosen label
Result: I
(I: 1620 nM, II: 6060 nM)

* * *

- TEST_SYSTEM: CREB-binding protein (Homo sapiens, UniProt Q92793)
- Sequence (Q92793 whole entry): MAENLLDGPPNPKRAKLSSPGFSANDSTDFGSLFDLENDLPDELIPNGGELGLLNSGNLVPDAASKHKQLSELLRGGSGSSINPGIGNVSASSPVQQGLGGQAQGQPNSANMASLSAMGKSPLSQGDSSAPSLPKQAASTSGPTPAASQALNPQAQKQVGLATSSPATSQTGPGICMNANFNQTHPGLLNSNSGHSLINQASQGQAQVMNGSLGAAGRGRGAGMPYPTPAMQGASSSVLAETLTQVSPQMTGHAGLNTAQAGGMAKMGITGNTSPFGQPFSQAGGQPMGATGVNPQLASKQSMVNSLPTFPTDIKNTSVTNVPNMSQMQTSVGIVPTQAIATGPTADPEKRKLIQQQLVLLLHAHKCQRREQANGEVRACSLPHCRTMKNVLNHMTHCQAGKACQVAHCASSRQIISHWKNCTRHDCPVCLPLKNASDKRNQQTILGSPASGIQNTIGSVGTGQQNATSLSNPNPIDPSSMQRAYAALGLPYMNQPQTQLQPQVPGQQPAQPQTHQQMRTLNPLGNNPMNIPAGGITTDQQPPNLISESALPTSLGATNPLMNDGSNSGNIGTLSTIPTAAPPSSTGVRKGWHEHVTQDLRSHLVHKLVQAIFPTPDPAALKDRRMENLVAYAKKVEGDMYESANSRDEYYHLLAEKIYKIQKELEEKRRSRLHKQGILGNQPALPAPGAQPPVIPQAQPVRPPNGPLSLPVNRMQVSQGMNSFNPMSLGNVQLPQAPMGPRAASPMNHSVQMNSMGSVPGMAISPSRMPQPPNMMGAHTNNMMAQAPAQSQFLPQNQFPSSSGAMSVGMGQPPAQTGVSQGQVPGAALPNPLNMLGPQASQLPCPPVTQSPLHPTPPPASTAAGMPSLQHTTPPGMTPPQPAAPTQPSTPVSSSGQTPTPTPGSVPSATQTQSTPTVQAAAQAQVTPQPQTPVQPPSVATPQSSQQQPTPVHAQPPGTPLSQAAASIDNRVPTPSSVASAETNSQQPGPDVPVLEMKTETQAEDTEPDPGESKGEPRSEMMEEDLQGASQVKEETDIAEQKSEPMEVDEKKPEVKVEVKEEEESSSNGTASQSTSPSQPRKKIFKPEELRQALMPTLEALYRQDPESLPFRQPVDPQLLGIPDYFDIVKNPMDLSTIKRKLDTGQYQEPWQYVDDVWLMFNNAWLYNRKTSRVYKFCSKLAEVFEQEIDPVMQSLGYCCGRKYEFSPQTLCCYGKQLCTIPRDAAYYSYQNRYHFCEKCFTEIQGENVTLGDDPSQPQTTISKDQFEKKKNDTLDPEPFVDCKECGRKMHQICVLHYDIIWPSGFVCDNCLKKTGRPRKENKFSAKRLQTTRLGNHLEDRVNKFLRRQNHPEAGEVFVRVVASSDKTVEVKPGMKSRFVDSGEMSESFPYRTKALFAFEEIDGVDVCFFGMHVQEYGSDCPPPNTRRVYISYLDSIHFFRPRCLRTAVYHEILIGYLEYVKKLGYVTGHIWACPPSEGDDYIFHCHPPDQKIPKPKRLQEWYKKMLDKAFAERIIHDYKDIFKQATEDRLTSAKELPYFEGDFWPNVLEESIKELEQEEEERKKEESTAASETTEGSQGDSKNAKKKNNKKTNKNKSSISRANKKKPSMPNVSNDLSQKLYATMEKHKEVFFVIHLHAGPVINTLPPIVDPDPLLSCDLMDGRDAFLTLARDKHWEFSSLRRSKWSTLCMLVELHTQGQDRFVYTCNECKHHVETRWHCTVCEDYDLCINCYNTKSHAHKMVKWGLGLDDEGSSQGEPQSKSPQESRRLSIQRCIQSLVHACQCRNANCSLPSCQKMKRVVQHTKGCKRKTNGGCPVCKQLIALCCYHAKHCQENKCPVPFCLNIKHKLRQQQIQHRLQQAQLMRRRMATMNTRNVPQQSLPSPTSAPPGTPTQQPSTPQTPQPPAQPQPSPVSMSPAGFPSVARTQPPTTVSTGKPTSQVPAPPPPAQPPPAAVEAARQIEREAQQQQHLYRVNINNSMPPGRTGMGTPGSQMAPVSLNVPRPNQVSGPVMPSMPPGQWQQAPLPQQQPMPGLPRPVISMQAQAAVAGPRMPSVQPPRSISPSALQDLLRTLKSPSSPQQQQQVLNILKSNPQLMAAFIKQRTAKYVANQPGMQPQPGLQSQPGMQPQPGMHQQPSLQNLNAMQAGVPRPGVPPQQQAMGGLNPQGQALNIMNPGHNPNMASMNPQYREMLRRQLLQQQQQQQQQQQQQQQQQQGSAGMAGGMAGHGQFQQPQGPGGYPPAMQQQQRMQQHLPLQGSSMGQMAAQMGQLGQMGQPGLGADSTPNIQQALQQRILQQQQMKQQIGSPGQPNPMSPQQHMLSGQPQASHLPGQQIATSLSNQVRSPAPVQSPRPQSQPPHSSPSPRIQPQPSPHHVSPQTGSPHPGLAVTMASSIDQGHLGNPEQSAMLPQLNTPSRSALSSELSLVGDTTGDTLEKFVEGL
- ASSAY_METHOD_TEXT: Displacement of fluorescein-labeled MS226 from recombinant human CBP bromodomain after 1 hr by fluorescence anisotropy assay
MEASURED_METRIC: Ki (µM)

Solved cases below.
> print(dat)
                                 cpd.smiles                               test.system  measured.metric  value.units  reported.result
1  Cc1cc(/N=N/c2ccc(S(=O)(=O)Nc3ccccn3)cc2)cc(C)c1O  CREB-binding protein (Homo sapiens, UniProt Q92793)               Ki           µM             7.15
2  Cc1cc(/N=N/c2ccc(S(=O)(=O)Nc3ccccn3)cc2)c(N)c(Cl)c1O  CREB-binding protein (Homo sapiens, UniProt Q92793)               Ki           µM             5.59

1 = Cc1cc(/N=N/c2ccc(S(=O)(=O)Nc3ccccn3)cc2)c(N)c(C)c1O
2 = Cc1cc(/N=N/c2ccc(S(=O)(=O)Nc3ccccn3)cc2)c(N)cc1O
Query: Lab notebook, comparison: 1 versus 2 , higher Ki goes to which? Answer format: the label of the selected item.
Result: 1
